System: NCI/ADR-RES ovarian
Assay: NCI tumour cell line growth inhibition, 48 h
Here, each record is paired with measured TGI data.

// known answers, use as guide
Compound	TGI
COc1ccc(-c2nc3sc(-c4cc(OC)c(OC)c(OC)c4)nn3c2/C=C2/C(=O)Nc3ccc(F)cc32)cc1	> 100 µM
O=C(CCCc1ccc(N(CCCl)CCCl)cc1)NCc1ccccc1	60.7 µM
Cn1ncnc1[C@@H]1c2n[nH]c(=O)c3cc(F)cc(c23)N[C@H]1c1ccc(F)cc1	> 100 µM
COc1cc2nc3n(c2cc1OC)C(O)c1c(Cl)nc(SC)nc1S3 (centres undefined)	18.7 µM
C=CC1(C)CCC2C(=CCC3C2(C)CC(O)C(O)C3(C)COC2OC(CO)C(O)C(O)C2O)C1 (centres undefined)	> 100 µM

Please fill in: TGI reported for COCCN(C(=O)c1ccccc1)C1CCC2(SCCS2)c2[nH]c3ccccc3c21 (centres undefined) = > 100 µM

Please fill in: TGI reported for COc1cccc2c1nc(C(F)F)n2-c1nc(-c2ccc(NS(=O)(=O)CCN(C)C)cc2)nc(N2CCOCC2)n1 = 33.6 µM

Please fill in: TGI reported for CCOC(=O)c1noc2c1CCc1c-2cn(Cc2ccc(OC)cc2)c1-c1cc(OC)c(OC)c(OC)c1 = > 100 µM

Please fill in: TGI reported for CCC(=C(c1ccc(OCCN2CCCCC2)cc1)c1ccc(OCCN2CCCCC2)cc1)c1ccc(Cl)cc1 = > 16.7 µM
